Data provenance is PubChem BioAssay.

- test-name: small-molecule binders of probe aLefty1, primary screen, biochemical, small-molecule microarray, 635/667 nm fluorescence (AID 1153);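 also: score merges spot fluorescence with signal-to-noise ratio from the scanned slide images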
- assay-setup: higher = more signal
Each item that follows carries a reported composite z-score.

{"columns": ["molecule", "composite z-score"],
 "data": [
  ["CCC(=O)[C@@]1(O)C(=O)N2C(=C3C(=O)OCC[C@@H]31)N(Cc1ccccc1)C(C)=C(C(=O)OC)[C@H]2c1ccccc1", -0.103],
  ["O=C(NN=C1C[C@@H](O)[C@@H](O)[C@@H]2[C@@H]3C(=O)N(C4CCCCC4)C(=O)[C@@H]3CC[C@@H]12)OCc1ccccc1", -0.407],
  ["CC(=O)OC[C@H]1O[C@H](C#Cc2ccccc2)C=C[C@@H]1OC(C)=O", -0.234],
  ["CC(C)(C)N1C(=O)[C@H]2[C@H]3[C@H](O)[C@H](O)CC(=O)[C@H]3CC[C@H]2C1=O", -0.144],
  ["CC(C)C[C@H](NC(=O)CCC1CC(OC(=O)NCc2cccc3ccccc23)CC2(CCCC(COC(=O)NCc3ccccc3)O2)O1)C(=O)NCC(c1ccccc1)c1ccccc1 (some centres not stated)", -0.29],
  ["CCc1cc2c(nc1CC)CCN(CCC(C)=NO[C@H](C)c1cn([C@H](CO)Cc3ccccc3)nn1)C2", 0.832],
  ["COC(=O)CC=C[C@@H](C)[C@@H](C=NO[C@@H](C)c1cc(-c2c(C)cc(C)cc2C)no1)NS(=O)(=O)c1ccc(C)cc1", 0.0437]
]}
